Value source: PubChem BioAssay (NCI)

System: CCRF-CEM leukemia
assay summary: NCI tumour cell line growth inhibition, 48 h
readout kind: TGI

compound: O=S(=O)(c1ccc(Br)cc1)n1c2ccc(Br)cc2c2nc3ccccc3nc21
recorded measurement: > 100 µM
--
compound: CN(C)c1nc2sc3c(c2c(=O)o1)CCCC3
recorded measurement: > 100 µM
--
compound: CC[C@@]1(O)C(=O)OCc2c1cc1n(c2=O)Cc2c-1nc1ccccc1c2/C=N\NC(=O)C(N)CC(C)C (stereo not given in full)
recorded measurement: 0.629 µM
--
compound: COC(=O)C(=O)C(C(=O)Nc1cccc(C)c1C)C1Sc2ccccc2NC1=O (stereo not given)
recorded measurement: > 25 µM
--
compound: COCOc1ccc(C(=O)C(C)c2ccc(OCOC)cc2OCOC)c(O)c1 (stereo not given)
recorded measurement: > 100 µM

###

// TGI lookup, one value per entry
System: OVCAR-3 ovarian
assay summary: NCI tumour cell line growth inhibition, 48 h
readout kind: TGI

compound: CC[P+](C)(Cc1ccccc1)c1ccccc1 (configuration not stated)
target desc: OVCAR-3 ovarian
readout kind: TGI
recorded measurement: > 100 µM

compound: CO[C@H](C(=O)[C@@H](O)[C@@H](C)O)[C@@H]1Cc2cc3cc(O[C@H]4C[C@@H](O[C@H]5C[C@@H](O)[C@H](O)C(C)O5)[C@H](O)C(C)O4)c(C)c(O)c3c(O)c2C(=O)[C@H]1O[C@H]1C[C@@H](O[C@H]2C[C@@H](O[C@H]3C[C@@H](OC)[C@H](O)C(C)O3)[C@@H](O)C(C)O2)C(O)(O)C(C)O1 (some centres not stated)
target desc: OVCAR-3 ovarian
readout kind: TGI
recorded measurement: 7.23 µM

compound: COc1cccc2c1C(=O)c1c(O)c3c(c(O)c1C2=O)CC(O)(C(C)=O)CC3OC1CC(N)C(O)C(C)O1 (configuration not stated)
target desc: OVCAR-3 ovarian
readout kind: TGI
recorded measurement: 0.958 µg/mL

compound: O=C1c2ccccc2C2(O)Nc3cc(O)ccc3C12O (configuration not stated)
target desc: OVCAR-3 ovarian
readout kind: TGI
recorded measurement: > 100 µM

compound: Cc1ccc(S(=O)(=O)N/N=C/c2oc(-c3cccc([N+](=O)[O-])c3)c(-c3cccc([N+](=O)[O-])c3)c2[N+](=O)[O-])cc1
target desc: OVCAR-3 ovarian
readout kind: TGI
recorded measurement: > 100 µM

compound: COc1cccc2c1OC1c3ccccc3OCC1C2 (configuration not stated)
target desc: OVCAR-3 ovarian
readout kind: TGI
recorded measurement: > 100 µM

compound: COc1c2cc([N+](=O)[O-])cc1CNC(=O)CN1CCOCCOCCN(CCOCCOCC1)CC(=O)NC2
target desc: OVCAR-3 ovarian
readout kind: TGI
recorded measurement: > 100 µM

###

Tested on: M14 melanoma
assay summary: NCI tumour cell line growth inhibition, 48 h
readout kind: TGI

compound: CCc1nn(CN2CCN(C)CC2)c(=S)n1/N=C\c1ccc(-c2ccc([N+](=O)[O-])cc2)o1
readout kind: TGI
recorded measurement: > 100 µM
--
compound: CCOC(=O)c1ccc(N=NN(C)C(=O)C(C)N)cc1 (stereo not given)
readout kind: TGI
recorded measurement: > 100 µM
--
compound: O=C1c2c(F)c(F)c(F)c(F)c2SC2=NCCN12
readout kind: TGI
recorded measurement: 14.1 µM
--
compound: Cc1ccc(C2CC(=O)CC(c3ccc(C)cc3)C23C(=O)NC(=O)NC3=O)cc1 (stereo not given)
readout kind: TGI
recorded measurement: > 100 µM
--
compound: COc1ccc(S(=O)(=O)NC(C)C(=O)O)cc1 (stereo not given)
readout kind: TGI
recorded measurement: > 100 µM
--
compound: O=C1OC(=O)c2c1c(-c1ccccc1)cn2-c1ccc(Cl)cc1
readout kind: TGI
recorded measurement: > 100 µM
--
compound: CCOc1cc2c(cc1O)/C(=N\N)C[C@@H]1[C@@H]2CC[C@]2(C)[C@@H](O)CC[C@@H]12
readout kind: TGI
recorded measurement: > 41.7 µM
--
compound: COc1cc2c(cc1OC)C13CCN4C=C5CCOC6CC(=O)N2C1C6C5CC43 (stereo not given)
readout kind: TGI
recorded measurement: > 100 µM
--
compound: COC(=O)N1CC2(CO)C3CC=C(C(=O)Nc4ccccc4Br)C2C1C3Br (stereo not given)
readout kind: TGI
recorded measurement: > 50 µM
--
compound: CC[C@@]1(O)C(=O)OCc2c1cc1n(c2=O)Cc2c-1nc1ccccc1c2/C=N\NC(=O)C(N)CC(C)C (stereo not given in full)
readout kind: TGI
recorded measurement: 0.648 µM
--
compound: CCCCNC1CCC2(SCCS2)c2[nH]c3ccccc3c21 (stereo not given)
readout kind: TGI
recorded measurement: > 65.1 µM
--
compound: O=C(CSCC(=O)N/N=C/c1cc(I)cc(I)c1O)N/N=C/c1cc(I)cc(I)c1O
readout kind: TGI
recorded measurement: 43.6 µM
--
compound: Cc1nc2ccc(CN(C)c3ccc(C(=O)N[C@@H](CCC(=O)O)C(=O)O)s3)cc2c(=O)[nH]1
readout kind: TGI
recorded measurement: > 100 µM
--
compound: CC[n+]1cnc(N)c2c(-c3ccc(Cl)cc3)cn(-c3ccc(C)cc3)c21
readout kind: TGI
recorded measurement: 4.14 µM
--
compound: CN1C/C(=C\c2cccs2)C2=NC(=S)NC(c3cccs3)C2C1 (stereo not given)
readout kind: TGI
recorded measurement: > 100 µM
--
compound: O=C(c1ccccc1)c1ccc2c(c1)nc1n2C(c2c(Cl)cccc2Cl)SC1 (stereo not given)
readout kind: TGI
recorded measurement: > 100 µM
--
compound: C1OCC2S[C@@H]3COCO[C@@H]3C2O1 (stereo not given in full)
readout kind: TGI
recorded measurement: > 100 µM
--
compound: C=C(C)[C@@]1(O)O[C@H]2C[C@@]3(C)OC(=CC3=O)/C(C)=C\[C@@H]3OC(=O)[C@@]1(C)[C@H]32
readout kind: TGI
recorded measurement: 37.5 µM
--
compound: O=C(CC1=Nc2nnc(-c3nnc4n3C(=O)C(CC(=O)c3cccnc3)=N4)n2C1=O)c1cccnc1
readout kind: TGI
recorded measurement: > 100 µM
--
compound: COc1cccc(C2CC(c3cc(OC)c(OC)c(OC)c3)=NN2)c1 (stereo not given)
readout kind: TGI
recorded measurement: > 100 µM
